assay: Human HepG2 cell viability assay in 384 well format; type: toxicity, cell-based; design: dose 125 nL, time 70.5 hour; concentration not given beside the values; conditions: HepG2 cells, read-out: Inhibition

{"columns": ["Molecule", "cytotoxicity at 70.5 h, %"],
 "data": [
  ["COc1ccccc1C1CC(=O)Nc2c1c(=O)[nH]n2C1CCCC1 (stereo unspecified)", -11.5],
  ["CCCc1noc(CN2CCN(CCO)CC2)n1", -1.1],
  ["O=C(N1CCOCC1)N1CC[C@H]2[C@@H]1CCC(=O)N2c1ccccc1", -1.24],
  ["CC(C)(C)CC(=O)NCC(=O)Nc1ccn(Cc2ccncc2)n1", -20.8],
  ["CC(C)c1nc2c(n1C)CCN(CC(=O)Nc1ccnn1C(C)C)C2", 0.248],
  ["O=C(CC1CC1)N1CCC2(CC1)CN(CCn1cccn1)C(=O)CO2", -4.82],
  ["CCN1C(=O)CC(c2cnn(C)c2)C12CCN(C(=O)C1CC=CC1)CC2 (stereo unspecified)", 0.244],
  ["O=S(=O)(CC1CCOCC1)NCc1ccnc(O)c1", 10.4],
  ["CC(C)C(=O)NC1COC2(CCN(Cc3cccnc3)CC2)C1 (stereo unspecified)", -10.3],
  ["CCS(=O)(=O)N1CCCCC1c1nc(CC(C)C)no1 (stereo unspecified)", -8.14],
  ["COC(=O)[C@H]1CN(C(=O)NC(C)C)CCN1C(=O)CSC", -5.64],
  ["CCn1c(C)nnc1CN(C)C1CCN(CCc2ccncc2)C1 (stereo unspecified)", -3.16],
  ["c1cc(CN2CCC(c3ccnc4nccn34)C2)ccn1 (stereo unspecified)", -1.62],
  ["COC1(CNC(=O)NCCOc2ccccc2)CCSC1 (stereo unspecified)", 1.02],
  ["Cc1ccc(C(=O)Oc2cc(=O)n3cccc(C)c3n2)cc1", 15.3],
  ["CCc1cnc(N)nc1NCCCn1nc(C)nc1C", -9.39],
  ["COCC(=O)N1CCC2(CC1)CC(COC)N(Cc1ccccn1)C2 (stereo unspecified)", -4.33],
  ["Cc1cc(C)n(CCCN(C)C(=O)C2COc3ccccc3C2)n1 (stereo unspecified)", 26.5],
  ["NS(=O)(=O)c1cnn(CC(=O)Nc2c(Cl)cccc2Cl)c1", -5.76],
  ["CNc1ncc(CN(C)C(=O)c2cccc(-n3cnnc3)c2)cn1", 11.7],
  ["Clc1ccccc1C1(c2ccnc(C3CCCC3)n2)CCNCC1", 73],
  ["CN(C)C[C@H]1OC[C@@H]2CN(C(=O)NCc3cccnc3)CC[C@@H]21", 0.184],
  ["CC(C)n1ccnc1C1CCN(C(=O)c2ccc(SCCO)cc2)CC1", -8.09],
  ["Cc1cc(C(F)(F)F)nc(CNC(=O)C2CCCCCN2C)n1 (stereo unspecified)", 2.11],
  ["Cc1cc(N2CCN(Cc3ccccc3)CC(O)C2)cc(C)n1 (stereo unspecified)", 11.5],
  ["Cc1cc(C2CCC2)nc(N2CCN(Cc3nccn3C)CC2)n1", -1.45],
  ["CCOc1ccccc1-n1c(C2CCC2)n[nH]c1=O", -18.9],
  ["CCC/C=C/c1ccc(CN2CCN(C)CC2)cn1", 26],
  ["Cc1ccccc1NC(=O)N1CCN(Cc2noc(C3CC3)n2)CC1", 1.73],
  ["Cc1ccc(C)c(S(=O)(=O)NC(=O)c2cccc3c2OCCO3)c1", -104],
  ["Cc1cc(C(=O)N2CCC3(C2)CN(c2cccnc2)C(=O)CN3C)[nH]n1 (stereo unspecified)", -10.2],
  ["O=C(COc1cccc2c1CCC2=O)NCC(F)(F)F", -2.4],
  ["O=C(Nc1cnccn1)[C@@H]1COC[C@H]2CN(C3CCCC3)C[C@H]21", -3.18],
  ["CCc1cnc(NCCSc2cnn[nH]2)nc1", 28.2],
  ["O=C1Nc2ccccc2CC12CCCN2Cc1cccnc1 (stereo unspecified)", -2.78],
  ["c1cncc(CN2CCN3C[C@H](Oc4cncnc4)C[C@H]3C2)c1", -5.49],
  ["CCCc1nc(C)c(C(=O)NCCN2CCOCC2)s1", 21.3],
  ["CNC(=O)C1CN(c2cc(C)ncn2)CCN1Cc1ccccc1 (stereo unspecified)", 21.6],
  ["N#Cc1ccc(OC2CCN(CC(=O)NCC(F)(F)F)CC2)cc1", -12.8],
  ["Cc1cc(O)cc(=O)n1CCCC(=O)Nc1n[nH]c2cccc(F)c12", -16.5],
  ["Cc1noc(C)c1C(=O)NCC(C)N1CCc2ccccc21 (stereo unspecified)", 9.63]
]}
